Test system: 616215-338-R-J1-PDC complex spheroid viability
Assay: Anticancer human tumor 616215-338-R-J1-PDC patient-derived colon adenocarcinoma cell line growth inhibition [POLQ]
Conditions: curve of first compound; second compound 0.316 µM
# IC50 per entry
Attribute Measured: IC50 (nM)

Compound	Attribute Measured	Result Operator	Data Value
CC(=O)O[C@H]1C(=O)[C@@]2(C)[C@H]([C@H](OC(=O)c3ccccc3)[C@]3(O)C[C@H](OC(=O)[C@H](O)[C@@H](NC(=O)c4ccccc4)c4ccccc4)C(C)=C1C3(C)C)[C@]1(OC(C)=O)CO[C@@H]1C[C@@H]2O + COC1C(OC(N)=O)C(O)C(Oc2ccc3c(O)c(NC(=O)c4ccc(O)c(CC=C(C)C)c4)c(=O)oc3c2C)OC1(C)C	IC50	=	25.2
C=CC(=O)N1CCN(c2nc(=O)n(-c3c(C)ccnc3C(C)C)c3nc(-c4c(O)cccc4F)c(F)cc23)C(C)C1 (centres undefined) + Nc1ccc(C#CCN(C(=O)Cc2ncc(C(F)(F)F)cc2C(F)(F)F)c2ccc(F)cc2)nn1	IC50	>	10000
COc1cccc(OCCCN)c1-c1cc(Nc2cnc(C#N)cn2)n[nH]1 + COC1C(OC(N)=O)C(O)C(Oc2ccc3c(O)c(NC(=O)c4ccc(O)c(CC=C(C)C)c4)c(=O)oc3c2C)OC1(C)C	IC50	>	1000
C=CCn1c(=O)c2cnc(Nc3ccc(N4CCN(C)CC4)cc3)nc2n1-c1cccc(C(C)(C)O)n1 + COC1C(OC(N)=O)C(O)C(Oc2ccc3c(O)c(NC(=O)c4ccc(O)c(CC=C(C)C)c4)c(=O)oc3c2C)OC1(C)C	IC50	>	1000
Cn1ncnc1[C@H]1c2n[nH]c(=O)c3cc(F)cc(c23)N[C@@H]1c1ccc(F)cc1 + Cc1cccc(N(C)C(=O)C2C(O)CCN2c2nc(C)cc(C(F)(F)F)c2C#N)c1	IC50	>	100
Nc1ccn(C2OC(CO)C(O)C2(F)F)c(=O)n1 (centres undefined) + COC1C(OC(N)=O)C(O)C(Oc2ccc3c(O)c(NC(=O)c4ccc(O)c(CC=C(C)C)c4)c(=O)oc3c2C)OC1(C)C	IC50	=	65.7
Cn1ncnc1[C@H]1c2n[nH]c(=O)c3cc(F)cc(c23)N[C@@H]1c1ccc(F)cc1 + Nc1ccc(C#CCN(C(=O)Cc2ncc(C(F)(F)F)cc2C(F)(F)F)c2ccc(F)cc2)nn1	IC50	>	100
CCc1c2c(nc3ccc(O)cc13)-c1cc3c(c(=O)n1C2)COC(=O)[C@]3(O)CC + COC1C(OC(N)=O)C(O)C(Oc2ccc3c(O)c(NC(=O)c4ccc(O)c(CC=C(C)C)c4)c(=O)oc3c2C)OC1(C)C	IC50	=	92.6
C=CCn1c(=O)c2cnc(Nc3ccc(N4CCN(C)CC4)cc3)nc2n1-c1cccc(C(C)(C)O)n1 + Nc1ccc(C#CCN(C(=O)Cc2ncc(C(F)(F)F)cc2C(F)(F)F)c2ccc(F)cc2)nn1	IC50	=	302

====

Test system: 616215-338-R-J1-PDC complex spheroid viability
Test: Anticancer human tumor 616215-338-R-J1-PDC cell line growth inhibition [POLQ];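 note: spheroids exposed to compounds for one week before readout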;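 for viability, T/C: percent viability relative to DMSO vehicle wells taken as 100%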
Conditions: second compound 0.1 µM; first compound 0.316 µM; stronger effect = lower value
Attribute Measured: viability, T/C (%)

Compound	Unit Text	Data Value
CCCS(=O)(=O)Nc1ccc(F)c(C(=O)c2c[nH]c3ncc(-c4ccc(Cl)cc4)cc23)c1F + Nc1ccc(C#CCN(C(=O)Cc2ncc(C(F)(F)F)cc2C(F)(F)F)c2ccc(F)cc2)nn1	%	110
CC1COCCN1c1cc(-c2ccnn2C)c2ccnc(-c3ccn[nH]3)c2n1 (stereo not drawn) + COC1C(OC(N)=O)C(O)C(Oc2ccc3c(O)c(NC(=O)c4ccc(O)c(CC=C(C)C)c4)c(=O)oc3c2C)OC1(C)C	%	60.8
CC1COCCN1c1cc(C2(O)CC3CCC(C2)O3)c2cnn(-c3ccn[nH]3)c2n1 (stereo not drawn) + Nc1ccc(C#CCN(C(=O)Cc2ncc(C(F)(F)F)cc2C(F)(F)F)c2ccc(F)cc2)nn1	%	37.8

The origin of these recorded values is PubChem BioAssay AID1963843.
